- procedure details: Antiproliferative activity against human PC3/TxR cells measured after 72 hrs by MTS assay
- Type: functional, cell-based
test readout: IC50 (nM)
Give the value, in units of nM, as a plain number.

structure string	unit abbrev	IC50
COc1cc(C(=O)c2cccc(-c3ccc(C)c(O)c3)n2)cc(OC)c1OC	nM	2.5
CC(=O)O[C@H]1C(=O)[C@@]2(C)[C@H]([C@H](OC(=O)c3ccccc3)[C@]3(O)C[C@H](OC(=O)[C@H](O)[C@@H](NC(=O)c4ccccc4)c4ccccc4)C(C)=C1C3(C)C)[C@]1(OC(C)=O)CO[C@@H]1C[C@@H]2O	nM	148

Q: Form field: reported IC50 of COc1cc2c(c(OC)c1OC)-c1ccc(OC)c(=O)cc1[C@@H](NC(C)=O)CC2
Ans: 56.3

---

- tested system: Tubulin (Sus scrofa, UniProt P02554+P02550)
- procedure details: Inhibition of porcine brain tubulin polymerization measured at 30 secs interval for 65 mins by spectrophotometric method
pIC50: −log10 of the molar value.
test readout: pIC50

Q: What value of pIC50 has been recorded for this entry: COc1cc(C(=O)c2cccc(-c3ccc(C)c(O)c3)n2)cc(OC)c1OC
Ans: 5.00 to 5.30

---

- System: SK-BR-3
- procedure details: Antiproliferative activity against human SK-BR-3 cells measured after 72 hrs by MTS assay
- Type: functional, cell-based
- reported conditions: SK-BR-3, 72 h
pIC50: −log10 of the molar value.
Use 8 as the dividing line for pIC50, with the line itself on the t side and lower values as f.

Example entries begin here.
structure string	tested system	label
COc1cc(C(=O)c2cccc(-c3ccc(C(N)=O)cc3)n2)cc(OC)c1OC	SK-BR-3	f
COc1cc(C(=O)c2cccc(-c3cccnc3)n2)cc(OC)c1OC	SK-BR-3	f

Q: Can COc1cc(C(=O)c2cccc(-c3ccc(C)c(N)c3)n2)cc(OC)c1OC be said to have pIC50 at or above 8?
Ans: t

---

- procedure details: Antiproliferative activity against human DU145-TxR cells measured after 72 hrs by MTS assay
- Type: functional, cell-based
pIC50: −log10 of the molar value.
Known pIC50 of a selection of molecules

Take a look at these entries with their results.
structure string	pIC50
CC(=O)O[C@H]1C(=O)[C@@]2(C)[C@H]([C@H](OC(=O)c3ccccc3)[C@]3(O)C[C@H](OC(=O)[C@H](O)[C@@H](NC(=O)c4ccccc4)c4ccccc4)C(C)=C1C3(C)C)[C@]1(OC(C)=O)CO[C@@H]1C[C@@H]2O	< 6.00
COc1cc2c(c(OC)c1OC)-c1ccc(OC)c(=O)cc1[C@@H](NC(C)=O)CC2	< 6.00

Next, consider the following molecule.
Q: Given the molecule COc1cc(C(=O)c2cccc(-c3ccc(C)c(O)c3)n2)cc(OC)c1OC , what is its reported pIC50?
Ans: 8.55

---

Each entry below lists one item and its recorded pIC50 value.
- Tested on: SK-BR-3
- procedure details: Antiproliferative activity against human SK-BR-3 cells measured after 72 hrs by MTS assay
- Assay type: functional, cell-based
- reported conditions: SK-BR-3, 72 h
pIC50 here is simply -log10 of the concentration when that concentration is written in mol/L.

Completed entries (count: 2):
structure string	experimental result
COc1cc(C(=O)c2cccc(-c3ccc(C(C)=O)cc3)n2)cc(OC)c1OC	7.73
COc1cc(C(=O)c2cccc(-c3cccc(C)c3)n2)cc(OC)c1OC	7.21

For the next question, use this compound.
Q: Quick one: pIC50 of COc1cc(C(=O)c2cccc(-c3ccc(C#N)cc3)n2)cc(OC)c1OC ?
Ans: 7.91

---

Catalogue of molecules with associated IC50
- Test system: SK-BR-3
- procedure details: Antiproliferative activity against human SK-BR-3 cells measured after 72 hrs by MTS assay
- Format: functional, cell-based
- reported conditions: SK-BR-3, 72 h
Express your answer in nM, writing the number without its unit.

Q: Give the measured IC50 of COc1cc(C(=O)c2cc(C)cc(-c3ccc(C)c(O)c3)n2)cc(OC)c1OC .
Ans: 15

Q: Moving on to the next molecule: COc1ccc(-c2cccc(C(=O)c3cc(OC)c(OC)c(OC)c3)n2)cc1
Ans: 19.9

Q: Try this molecule next: COc1cc(C(=O)c2cccc(-c3ccc(C)c(O)c3)c2)cc(OC)c1OC
Ans: 20

Q: What do you have for COc1cc(C(=O)c2cccc(-c3ccc([N+](=O)[O-])cc3)n2)cc(OC)c1OC ?
Ans: 5

Q: Note, next up: COc1cc(C(=O)c2cccc(-c3cccc(O)c3)n2)cc(OC)c1OC
Ans: 101

---

- System: SK-BR-3
- procedure details: Antiproliferative activity against human SK-BR-3 cells measured after 72 hrs by MTS assay
- Type: functional, cell-based
- reported conditions: SK-BR-3, 72 h
# pIC50 per record follows
The quantity pIC50 is defined as the negative base-10 logarithm of the molar concentration.

structure string	tested system	pIC50
COc1cc(C(=O)c2cccc(-c3ccc(F)cc3)n2)cc(OC)c1OC	SK-BR-3	7.44

Here is another molecule to look at.
Q: Value lookup for pIC50; key = COc1cc(C(=O)c2cnc(-c3c[nH]c4ccccc34)[nH]2)cc(OC)c1OC
Ans: 7.88

---

- Tested on: SK-BR-3
- procedure details: Antiproliferative activity against human SK-BR-3 cells measured after 72 hrs by MTS assay
- Assay type: functional, cell-based
- reported conditions: SK-BR-3, 72 h
test readout: pIC50
The scale used: pIC50 is minus the common logarithm of the concentration in molar units.

structure string	pIC50
COc1cc(C(=O)c2cccc(-c3ccc4[nH]c5ccccc5c4c3)n2)cc(OC)c1OC	6.49
COc1cc(C(=O)c2cncc(-c3ccc(C)c(O)c3)c2)cc(OC)c1OC	7.20
COc1cc(C(=O)c2cccc(-c3ccc(O)cc3)n2)cc(OC)c1OC	6.41
COc1cccc(-c2cccc(C(=O)c3cc(OC)c(OC)c(OC)c3)n2)c1	7.37
COc1cc(C(=O)c2cccc(-c3ccc(C)c(C)c3)n2)cc(OC)c1OC	8.06

Q: State its pIC50 on SK-BR-3: COc1cc(C(=O)c2cc(-c3ccc(C)cc3)ccn2)cc(OC)c1OC
Ans: 7.92

Q: Consider next the molecule COc1cc(C(=O)c2cc(F)cc(-c3ccc(C)c(O)c3)c2)cc(OC)c1OC in the same way.
Ans: 7.06

Q: Likewise for COc1cc(C(=O)c2cccc(-c3ccc(C)c(Cl)c3)n2)cc(OC)c1OC ?
Ans: 7.87

Q: Same read-out for COc1cc(C(=O)c2cccc(-c3cccc4[nH]ccc34)n2)cc(OC)c1OC ?
Ans: 7.72

Q: Next up: COc1cc(C(=O)c2cccc(-c3cccc([N+](=O)[O-])c3)n2)cc(OC)c1OC
Ans: 6.13

Q: Same again, this time with COc1cc(C(=O)c2c[nH]c(-c3ccc(C)cc3)n2)cc(OC)c1OC
Ans: 7.90

Q: Next molecule up: COc1cc(C(=O)c2cccc(-c3ccc(C(F)(F)F)cc3)n2)cc(OC)c1OC
Ans: 8.15

---

- Test system: SK-BR-3
- procedure details: Antiproliferative activity against human SK-BR-3 cells measured after 72 hrs by MTS assay
- Format: functional, cell-based
- reported conditions: SK-BR-3, 72 h
pIC50: −log10 of the molar value.
test readout: pIC50

Answered examples (2):
structure string	pIC50
COc1cc(C(=O)c2cccc(-c3ccnc4ccccc34)n2)cc(OC)c1OC	< 6.00
COc1cc(C(=O)c2cccc(-c3cncc4ccccc34)n2)cc(OC)c1OC	< 6.00

Consider the additional molecule presented here.
Q: What value of measured pIC50 is listed for COc1cc(C(=O)c2cccc(-c3ccncc3)n2)cc(OC)c1OC ?
Ans: < 6.00
